Data credit: patent US20210269533A1

assayedTarget: c-Met on cancer cells (MKN45 gastric cancer cells; NCI-H441 lung cancer cells) (human, UniProt P08581 25-1390)
Sequence (P08581 25-1390): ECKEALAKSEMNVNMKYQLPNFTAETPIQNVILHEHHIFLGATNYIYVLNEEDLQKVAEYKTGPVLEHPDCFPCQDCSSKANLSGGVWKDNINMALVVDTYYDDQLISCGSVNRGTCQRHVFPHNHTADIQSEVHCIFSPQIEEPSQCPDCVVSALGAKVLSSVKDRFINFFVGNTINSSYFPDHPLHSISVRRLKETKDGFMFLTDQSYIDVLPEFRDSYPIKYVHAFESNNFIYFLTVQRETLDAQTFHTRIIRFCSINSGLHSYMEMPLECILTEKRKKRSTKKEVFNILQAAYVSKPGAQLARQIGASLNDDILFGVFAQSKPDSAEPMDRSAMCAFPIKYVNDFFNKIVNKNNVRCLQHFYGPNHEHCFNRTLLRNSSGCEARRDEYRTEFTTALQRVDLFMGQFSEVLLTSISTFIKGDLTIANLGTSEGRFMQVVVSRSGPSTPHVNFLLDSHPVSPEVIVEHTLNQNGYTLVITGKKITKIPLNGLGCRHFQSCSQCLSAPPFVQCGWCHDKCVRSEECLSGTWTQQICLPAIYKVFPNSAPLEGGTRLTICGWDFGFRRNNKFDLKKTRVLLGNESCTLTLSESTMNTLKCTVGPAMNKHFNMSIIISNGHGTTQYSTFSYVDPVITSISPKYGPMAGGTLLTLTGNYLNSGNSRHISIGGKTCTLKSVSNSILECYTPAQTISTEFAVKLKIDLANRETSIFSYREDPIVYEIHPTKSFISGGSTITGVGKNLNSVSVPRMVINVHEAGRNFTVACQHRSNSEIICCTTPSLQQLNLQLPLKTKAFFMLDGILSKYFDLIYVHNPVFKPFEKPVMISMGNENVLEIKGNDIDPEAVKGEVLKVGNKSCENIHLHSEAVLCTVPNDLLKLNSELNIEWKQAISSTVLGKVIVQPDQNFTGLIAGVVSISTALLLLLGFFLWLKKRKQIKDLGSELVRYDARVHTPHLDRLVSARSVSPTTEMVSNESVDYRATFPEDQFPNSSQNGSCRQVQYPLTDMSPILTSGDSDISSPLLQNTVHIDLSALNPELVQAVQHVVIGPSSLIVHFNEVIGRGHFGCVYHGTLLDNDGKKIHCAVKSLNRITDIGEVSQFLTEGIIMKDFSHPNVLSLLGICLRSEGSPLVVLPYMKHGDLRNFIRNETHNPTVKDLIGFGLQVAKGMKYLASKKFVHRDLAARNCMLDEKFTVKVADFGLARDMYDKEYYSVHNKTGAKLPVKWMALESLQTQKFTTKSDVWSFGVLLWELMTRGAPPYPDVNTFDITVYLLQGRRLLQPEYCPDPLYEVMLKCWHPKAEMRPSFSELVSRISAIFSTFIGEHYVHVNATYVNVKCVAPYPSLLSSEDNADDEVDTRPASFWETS
assayRemarks: cell-based or functional assay
parameterMeasured: BrdU assay on NCI-H441 cells (agonism); safety improved by, at 10 ug/ml (%)
// note: answer is a bare numeric in %

Request: Given huAbF46-H4-A2 (antibody, IgG1, V domains shown, IgG1 constant region with U6-HC7 hinge, human kappa light chain; also called IgG from clone L3-2) VH: EVQLVESGGGLVQPGGSLRLSCAASGFTFTDYYMSWVRQAPGKGLEWLGFIRNKANGYTTEYSASVKGRFTISRDNSKNTLYLQMNSLRAEDTAVYYCARDNWFAYWGQGTLVTVSS VL: DIQMTQSPSSLSASVGDRVTITCKSSQSLLASGNQNNYLAWHQQKPGKAPKMLIIWASTRVSGVPSRFSGSGSGTDFTLTISSLQPEDFATYYCGQSYSRPLTFGQGTKVEIKR , respond with its BrdU assay on NCI-H441 cells (agonism); safety improved by, at 10 ug/ml.
Response: 28
